All figures here come from ChEMBL document CHEMBL5360534.

- tgt: Alpha-glucosidase (Saccharomyces cerevisiae S288c, UniProt P53341+P38158+P07265)
- assay_name: Inhibition of Saccharomyces cerevisiae alpha-glucosidase
- Assay type: protein assay
Returns: string. Value is true if measured IC50 is below 40 µM, and false if it is greater than or equal to it.

# sample_smiles, class
measured = [
    ("O=c1cc(-c2ccc(OCc3cn(Cc4cc(Cl)ccc4Cl)nn3)cc2)oc2ccccc12", "true"),
    ("O=C(COc1ccc(C(c2c(O)c3ccccc3oc2=O)c2c(O)c3ccccc3oc2=O)cc1)Nc1ccc(Br)cc1", "false"),
    ("O=c1cc(-c2ccc(OCc3cn(Cc4ccc(Cl)cc4)nn3)cc2)oc2ccccc12", "true"),
    ("O=C(/C=C\\c1ccc(OCc2cn(Cc3ccc(O)cc3)nn2)cc1)NCCc1c[nH]c2ccccc12", "false"),
]

Here is the next item to consider.
Decide: IC50 of "Clc1ccc(/C=N/Nc2nnc(-c3ccccc3)c(-c3ccccc3)n2)cc1" strictly below 40 µM?
true

* * *

# IC50 per record follows
- tgt: Alpha-glucosidase (Saccharomyces cerevisiae S288c, UniProt P53341+P38158+P07265)
- assay_name: Inhibition of Saccharomyces cerevisiae alpha-glucosidase
- Format: protein assay

# sample_smiles, measured_metric, value
rows = [
    ("O=C(N/N=C\\c1ccccc1OCCCN1C(=O)c2ccccc2C1=O)c1cc2ccccc2oc1=O", "IC50", "85.2 µM"),
    ("O=C(COc1ccc2ccc(=O)oc2c1)N/N=C\\c1cc([N+](=O)[O-])ccc1OCCCN1C(=O)c2ccccc2C1=O", "IC50", "94.2 µM"),
]

Returns the measured IC50 for the input compound. Input: "Cc1cc2nc(NC(=O)CN3C(=O)S/C(=C\c4ccc(Cl)cc4)C3=O)sc2cc1C"
29.91 µM

* * *

- assay_name: Inhibition of alpha-glucosidase (unknown origin) using p-nitrophenyl-alpha-D-glucopyranoside as substrate preincubated for 5 mins followed by substrate addition and measured after 5 mins by spectrophotometric analysis
- Set-up: species or system Homo sapiens
# log10 IC50 per record follows
// units: nM (pre-log); metric: IC50; scale: log10

Answered cases to consult:
# compound, value
measured = [
    ("C[C@H]1O[C@H](O[C@H]2[C@H](O)[C@@H](O)[C@@H](O[C@H]3[C@H](O)[C@@H](O)C(O)O[C@@H]3CO)O[C@@H]2CO)[C@H](O)[C@@H](O)[C@@H]1N[C@H]1C=C(CO)[C@@H](O)[C@H](O)[C@H]1O (stereo not given in full) [ACARBOSE]", 4.72),
    ("Nc1nnc(-c2ccc(O)cc2)s1", 3.43),
    ("O=S(=O)(NCCc1c[nH]c2ccccc12)c1cc(F)ccc1Cl", 3.20),
    ("Oc1ccc(/C=N/c2nnc(-c3ccc(Cl)cc3)s2)cc1", 3.36),
]

Next:
Returns the measured log10 IC50 for the input compound. Input: "COc1ccc(/C(CSc2nc3ccccc3[nH]2)=N/N=C/c2ccc(OC)cc2O)cc1"
3.34

* * *

# pIC50 per record follows
- assay_name: Inhibition of alpha-glucosidase (unknown origin) using p-nitrophenyl-alpha-D-glucopyranoside as substrate preincubated for 15 mins followed by substrate addition and measured after 30 mins by absorbance based analysis
- Design: species or system Homo sapiens
For clarity, pIC50 is expressed as the negative log10 of concentration in mol/L.

# compound, value
records = [
    ("C[C@H]1O[C@H](O[C@H]2[C@H](O)[C@@H](O)[C@@H](O[C@H]3[C@H](O)[C@@H](O)C(O)O[C@@H]3CO)O[C@@H]2CO)[C@H](O)[C@@H](O)[C@@H]1N[C@H]1C=C(CO)[C@@H](O)[C@H](O)[C@H]1O (some centres not stated) [ACARBOSE]", 4.78),
]

Next:
Returns the measured pIC50 for the input compound. Input: "O=C1Nc2cc(Br)ccc2/C1=N/Nc1nc(-c2ccc(Br)cc2)cs1"
4.68
